# Tested target: IL-17A(FLAG-Tagged): IL-17RA(His-Tagged) (Homo sapiens, UniProt Q16552, K93Q)
# Sequence (Q16552 with tags, fused parts or gaps K93Q): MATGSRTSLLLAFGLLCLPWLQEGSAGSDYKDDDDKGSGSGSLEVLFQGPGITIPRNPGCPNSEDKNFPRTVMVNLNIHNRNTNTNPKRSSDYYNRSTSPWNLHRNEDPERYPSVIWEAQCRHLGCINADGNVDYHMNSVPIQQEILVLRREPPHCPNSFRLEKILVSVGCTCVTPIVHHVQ
# Experiment notes: IL-17A(FLAG-Tagged): IL-17RA(His-Tagged) Binding Disruption Eu-HTRF Assay, Protocol 1
# Condition label: Protocol 1, FLAG tagged IL-17A 2.5 nM; simple average if tested more than once
# Source text: An antibody directed against the FLAG tag of IL-17A (SEQ ID NO: 1) is labeled with the HTRF donor chromophore (Europium-cryptate). […] The fluorescence-resonance energy transfer (FRET) depends on the vicinity of the donor chromophore to the acceptor, and interruption of the binding between the IL-17A and IL-17RA causes the reduction/loss of FRET. Therefore, this assay allows to evaluate the compound effect on the binding IL-17A and IL-17RA by monitoring the fluorescence intensity of donor vs acceptor. […]
pIC50: −log10 of the molar value.
Listing of recorded pIC50 by entry.

Compound	pIC50
Cc1nonc1C(=O)N[C@@H](COC(C)(C)C(F)(F)F)c1nc2cc([C@@H](C3CC3)N3CC4(CC4)NC3=O)ccc2[nH]1 [Example 87]	> 7.30
Cc1nonc1C(=O)N[C@@H](COC(C)(C)C(F)(F)F)c1nc2cc([C@H](N3CC(F)(F)CNC3=O)C3(C#N)CC3)ccc2[nH]1 (relative stereo) [Example 40]	7.00 to 7.30
Cc1nonc1C(=O)N[C@@H](COC(C)(C)C(F)(F)F)c1nc2cc([C@@H](C3CC3)N3C[C@@H](C(F)(F)F)NC3=O)ccc2[nH]1 [Example 2]	> 7.30

* * *

# Test system: IL-17A-induced G-CSF production in human normal keratinocyte (NHK)
# Experiment notes: NHK Assay: IL-17A-induced G-CSF production in human normal keratinocyte
# Type: cell-based
# Condition label: Homo sapiens, Keratinocyte, 24 h, IL-17A 5 ng/mL, simple average if tested more than once
Reported property: IC50

Compound	Reported property	Result value
Cc1nonc1C(=O)NC(COC(C)(C)C(F)(F)F)c1nc2nc([C@@H](C3CC3)N3CC(F)(F)CNC3=O)ccc2[nH]1 (single isomer, unassigned)	IC50	50 to 100 nM
C[C@H](O[C@H](C)[C@H](NC(=O)c1nonc1C1CC1)c1nc2cc([C@@H](COC3CC3)N3CC(F)(F)CNC3=O)ccc2[nH]1)C(F)(F)F	IC50	< 50 nM
C[C@@H](O[C@H](C)C(F)(F)F)C(NC(=O)c1nonc1C1CC1)c1nc2nc([C@@H](C3CC3)N3CC(F)(F)CNC3=O)ccc2[nH]1 (single isomer, unassigned)	IC50	< 50 nM
CO[C@@H](CC(F)(F)F)[C@H](NC(=O)c1nonc1C1CC1)c1nc2cc(CN3C[C@@H](C(F)(F)F)NC3=O)ccc2[nH]1 (relative stereo)	IC50	< 50 nM
CO[C@H](CC(F)(F)F)[C@H](NC(=O)c1nonc1C)c1nc2cc(CN3C[C@@H](C(F)(F)F)NC3=O)ccc2[nH]1 (relative stereo)	IC50	> 100 nM

* * *

Listing of recorded IC50 by entry.
# Tested target: IL-17A(FLAG-Tagged): IL-17RA(His-Tagged) (Homo sapiens, UniProt Q16552, K93Q)
# Experiment notes: IL-17A(FLAG-Tagged): IL-17RA(His-Tagged) Binding Disruption Eu-HTRF Assay, Protocol 2
# Condition label: Protocol 2, FLAG tagged IL-17A 1 nM; simple average if tested more than once

Compound	Tested target	IC50
C[C@@H](OC1CC1)[C@H](NC(=O)c1nonc1C1CC1)c1nc2cc([C@@H](COC3CC3)N3C[C@@H](C(F)(F)F)NC3=O)ccc2[nH]1	IL-17A(FLAG-Tagged): IL-17RA(His-Tagged) (Homo sapiens, UniProt Q16552, K93Q)	< 50 nM
CC(C)n1ncc(F)c1C(=O)N[C@H](c1nc2cc([C@@H](COC3CC3)N3CC(F)(F)CNC3=O)ccc2[nH]1)[C@@H](C)OC1CC1	IL-17A(FLAG-Tagged): IL-17RA(His-Tagged) (Homo sapiens, UniProt Q16552, K93Q)	< 50 nM
CC(C)(OC[C@H](NC(=O)c1nonc1C1CC1)c1nc2cc(CN3C[C@@H](C(F)(F)F)NC3=O)ccc2[nH]1)C(F)(F)F (single isomer, unassigned)	IL-17A(FLAG-Tagged): IL-17RA(His-Tagged) (Homo sapiens, UniProt Q16552, K93Q)	< 50 nM

* * *

Listing of recorded pIC50 by entry.
# Tested target: IL-17A(FLAG-Tagged): IL-17RA(His-Tagged) (Homo sapiens, UniProt Q16552, K93Q)
# Experiment notes: IL-17A(FLAG-Tagged): IL-17RA(His-Tagged) Binding Disruption Eu-HTRF Assay, Protocol 1
# Condition label: Protocol 1, FLAG tagged IL-17A 2.5 nM; simple average if tested more than once
pIC50: −log10 of the molar value.
Reported property: pIC50

Compound	Result value
Cc1nonc1C(=O)NC(c1nc2nc([C@@H](C3CC3)N3CC(F)(F)CNC3=O)ccc2[nH]1)[C@@H](C)O[C@H](C)C(F)(F)F (single isomer, unassigned)	> 7.30
COC[C@H](c1ccc2[nH]c([C@@H](NC(=O)c3nonc3C)[C@@H](C)O[C@@H](C)C(F)(F)F)nc2c1)N1C[C@@H](C(F)(F)F)NC1=O	> 7.30
CC(C)(OC[C@H](NC(=O)c1nonc1C1CC1)c1nc2cc([C@@H](C3CC3)N3CC(F)(F)CNC3=O)ccc2[nH]1)C(F)(F)F	> 7.30

* * *

# Test system: IL-17A-induced G-CSF production in human normal keratinocyte (NHK)
# Experiment notes: NHK Assay: IL-17A-induced G-CSF production in human normal keratinocyte
# Type: cell-based
# Condition label: Homo sapiens, Keratinocyte, 24 h, IL-17A 5 ng/mL, simple average if tested more than once
Reported property: IC50

Compound	Result value
[2H]C1([2H])NC(=O)N([C@@H](c2ccc3[nH]c([C@H](COC(C)(C)C(F)(F)F)NC(=O)c4nonc4C4CC4)nc3c2)C2CC2)C([2H])([2H])C1(F)F [Example 78]	< 0.05 µM
C[C@@H](OC1CC1)[C@H](NC(=O)c1nonc1C1CC1)c1nc2cc([C@@H](COC3CC3)N3C[C@@H](C(F)(F)F)NC3=O)ccc2[nH]1 [Example 69]	< 0.05 µM
CC(C)(OC[C@H](NC(=O)c1nonc1C1CC1)c1nc2cc(CN3C[C@@](C)(C(F)(F)F)NC3=O)ccc2[nH]1)C(F)(F)F (relative stereo) [Example 61]	< 0.05 µM
Cc1nonc1C(=O)N[C@H](c1nc2cc([C@@H](COC3CC3)N3CC(F)(F)CNC3=O)ccc2[nH]1)[C@@H](C)OC1CC1 [Example 73]	< 0.05 µM
Cc1nonc1C(=O)NC(COC(C)(C)C(F)(F)F)c1nc2cc([C@@H](C)N3C[C@@H](C(F)(F)F)NC3=O)ccc2[nH]1 (single isomer, unassigned) [Example 6]	< 0.05 µM
Cc1nonc1C(=O)NC(c1nc2nc([C@@H](C3CC3)N3CC(F)(F)CNC3=O)ccc2[nH]1)[C@@H](C)O[C@H](C)C(F)(F)F (single isomer, unassigned) [Example 19]	0.05 to 0.1 µM
COC[C@H](c1ccc2[nH]c(C(COC(C)(C)C(F)(F)F)NC(=O)c3nonc3C3CC3)nc2c1)N1C[C@@H](C(F)(F)F)NC1=O (single isomer, unassigned) [Example 47]	< 0.05 µM
Cc1nonc1C(=O)N[C@H](c1nc2cc([C@@H](COC3CC3)N3CC(F)(F)CNC3=O)ccc2[nH]1)[C@@H](C)O[C@@H](C)C(F)(F)F [Example 66]	< 0.05 µM
CC(C)(OC[C@H](NC(=O)c1nonc1C1CC1)c1nc2cc(CN3C[C@](C)(C(F)(F)F)NC3=O)ccc2[nH]1)C(F)(F)F (relative stereo) [Example 60]	< 0.05 µM
C[C@H](c1ccc2[nH]c([C@H](COC(C)(C)C(F)(F)F)NC(=O)c3nonc3C3CC3)nc2c1)N1CC(F)(F)CNC1=O (relative stereo) [Example 25]	< 0.05 µM
CC(C)n1nccc1C(=O)N[C@@H](COC(C)(C)C(F)(F)F)c1nc2nc(CN3C[C@@H](C(F)(F)F)NC3=O)ccc2[nH]1 (relative stereo) [Example 37]	> 0.1 µM

* * *

Listing of recorded pIC50 by entry.
# Tested target: IL-17A(FLAG-Tagged): IL-17RA(His-Tagged) (Homo sapiens, UniProt Q16552, K93Q)
# Experiment notes: IL-17A(FLAG-Tagged): IL-17RA(His-Tagged) Binding Disruption Eu-HTRF Assay, Protocol 1
# Condition label: Protocol 1, FLAG tagged IL-17A 2.5 nM; simple average if tested more than once
pIC50: −log10 of the molar value.
Reported property: pIC50

Molecule	Result value
CC(C)n1nccc1C(=O)N[C@@H](COC(C)(C)C(F)(F)F)c1nc2ccc(CN3CC(F)(F)CNC3=O)cc2[nH]1	> 7.30
CC(C)(OC[C@H](NC(=O)c1nonc1C1CC1)c1nc2ccc(CN3CC(F)(F)CNC3=O)cc2[nH]1)C(F)(F)F	> 7.30
COCC(c1ccc2[nH]c([C@H](COC(C)(C)C(F)(F)F)NC(=O)c3nonc3C)nc2c1)N1CC(C)(C)NC1=O (single isomer, unassigned) [Example 49]	< 7.00
[2H]C1([2H])[C@H](C(F)(F)F)NC(=O)N1[C@@H](c1ccc2[nH]c([C@@H](NC(=O)c3nonc3C)[C@@H](C)O[C@H](C)C(F)(F)F)nc2c1)C1CC1 (relative stereo)	7.00 to 7.30
Cc1nonc1C(=O)NC(COC(C)(C)C(F)(F)F)c1nc2cc([C@@H](COC3CC3)N3CC(F)(F)CNC3=O)ccc2[nH]1 (single isomer, unassigned)	> 7.30
CC(C)(OC[C@H](NC(=O)c1nonc1C1CC1)c1nc2nc(CN3C[C@@H](C(F)(F)F)NC3=O)ccc2[nH]1)C(F)(F)F (relative stereo)	< 7.00
C[C@@H](O[C@H](C)C(F)(F)F)C(NC(=O)c1nonc1C1CC1)c1nc2nc([C@@H](C3CC3)N3CC(F)(F)CNC3=O)ccc2[nH]1 (single isomer, unassigned)	> 7.30
[2H]C1([2H])[C@H](C(F)(F)F)NC(=O)N1[C@H](COC)c1ccc2[nH]c([C@H](COC(C)(C)C(F)(F)F)NC(=O)c3nonc3C)nc2c1 (relative stereo)	> 7.30
CC(C)(OC[C@H](NC(=O)c1nonc1C1CC1)c1nc2cc(CN3C[C@@H](C(F)(F)F)NC3=O)ccc2[nH]1)C(F)(F)F (single isomer, unassigned)	> 7.30
[2H]C1([2H])[C@@H](C(F)(F)F)NC(=O)N1[C@H](COC)c1ccc2[nH]c([C@H](COC(C)(C)C(F)(F)F)NC(=O)c3nonc3C)nc2c1 (relative stereo)	> 7.30
Cc1nonc1C(=O)N[C@@H](COC(C)(C)C(F)(F)F)c1nc2cc([C@@H](C3CC3)N3C[C@@H](C4CC4)NC3=O)ccc2[nH]1	> 7.30
